Value source: PubChem BioAssay AID2016

assay: modulators of MEP2-GFP levels in yeast, primary screen, S. cerevisiae, multiplex flow cytometry, MLPCN library (AID 2016);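 note: median GFP fluorescence of the barcode-gated MEP2-GFP cells per well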; details: S. cerevisiae MEP2-GFP strain, 3 h, at 10 µM
Out of some 330,000 compounds screened, about 1,700 (0.52%) were called active.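 Rule for the calls: active = GFP response versus DMSO above a set limit, roughly screen mean plus 3 SD (cut at about 180% in these data); inconclusive = fewer than 70 cells counted for a yeast strain; inactive = the rest.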 This is one part of a sample in which actives are shown more often than they occur.
Lab note: assign the record to one of active, inactive

1) COC1=CC=C2[C@H]3Cc4ccc(OC)c5c4[C@@]2(CCN3C)C1O5 (some centres undefined) ... inactive
2) Cc1cccc2c(CCN)c[nH]c12 ... inactive
3) NCCc1c[nH]c2ccc(O)cc12 ... active

Okay, now this molecule:
What outcome does the record of this test show for C/C(CCc1c[nH]c2ccccc12)=N\O ?
inactive
